# Tested on: Escherichia coli TOP10;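 note: peptides expressed intracellularly from a pBAD plasmid library in pooled LB shake-flask culture, induced with 0.3% L-arabinose, DNA abundance read by NGS, three biological replicates, DESeq2 with apeglm shrinkage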
# experimentDescription: shrunken log2 fold change of peptide-encoding DNA abundance (4.5 h post-induction vs induction); higher = less antimicrobial activity (less host growth inhibition)
# measurementConditions: time post-induction: 4.5 h; library: site-saturation at positions 5, 18, 19, 20
For each entry below, report its shrunken log2 fold change value.
One number for each entry.

Here is how some sequences turned out for shrunken log2 fold change.
[
  {
    "seqString": "RRIRTRPPRLPRPRPRPMKPPRP",
    "shrunken log2 fold change": -0.0805
  },
  {
    "seqString": "RRIRTRPPRLPRPRPRPPWWPRP",
    "shrunken log2 fold change": 0.928
  },
  {
    "seqString": "RRIRQRPPRLPRPRPRPICNPRP",
    "shrunken log2 fold change": -0.211
  },
  {
    "seqString": "RRIRFRPPRLPRPRPRPVDCPRP",
    "shrunken log2 fold change": -0.0595
  },
  {
    "seqString": "RRIRCRPPRLPRPRPRPNHSPRP",
    "shrunken log2 fold change": -0.936
  },
  {
    "seqString": "RRIRMRPPRLPRPRPRPRGEPRP",
    "shrunken log2 fold change": 0.0602
  },
  {
    "seqString": "RRIRWRPPRLPRPRPRPDYLPRP",
    "shrunken log2 fold change": -0.0223
  },
  {
    "seqString": "RRIRCRPPRLPRPRPRPELNPRP",
    "shrunken log2 fold change": -0.137
  }
]

Could you tell me shrunken log2 fold change for each of these sequences? They are listed below.
1. RRIRFRPPRLPRPRPRPPHVPRP
2. RRIRKRPPRLPRPRPRPEEKPRP
3. RRIRGRPPRLPRPRPRPADKPRP
4. RRIRPRPPRLPRPRPRPFTRPRP

Result:
0.203
0.0431
0.365
-0.00841
